assayProcedure: Human liver microsome stability / intrinsic clearance
Type: in vitro ADME
conditionDetails: human, liver microsomes
reportedProperty: CLint scaled (mL/min/kg)

[
  {
    "compound": "Cn1cnc2cc(CN3CCC(OCc4cccc(C(F)(F)F)c4)CC3)ccc21",
    "CLint scaled [mL/min/kg]": 63.3
  },
  {
    "compound": "FC(F)(F)c1cccc(COC2CCN(Cc3cn4ccccc4n3)CC2)c1",
    "CLint scaled [mL/min/kg]": 44.6
  }
]

I: Fc1cc(COC2CCN(Cc3cn4ccccc4n3)CC2)ccc1Cl
II: Fc1ccc(CO[C@H]2CCCN(Cc3ncn4ccccc34)C2)cc1F
III: Cn1ncc2cc(CN3CCC(OCc4cccc(C(F)(F)F)c4)CC3)ccc21
IV: Cc1nc(CN2CCC(OCc3ccc(Cl)c(F)c3)CC2)c2ccccn12
V: FC(F)(F)c1cccc(COC2CCN(Cc3cc4ccc(Cl)cc4[nH]3)CC2)c1
Input: Could you please order the items by CLint scaled, going from the lowest number to the highest? Give your ranking as a list of the labels in the requested order.
Output: V, I, III, IV, II
(V: 26.9 mL/min/kg, I: 44.1 mL/min/kg, III: 63.3 mL/min/kg, IV: 114 mL/min/kg, II: 622 mL/min/kg)

----------
assayProcedure: In vivo rat cassette PK
conditionDetails: iv, 0.25 mg/kg
reportedProperty: C0 (ng/mL)

1: Fc1ccc(COC2CCN(Cc3cc4ccc(Cl)cc4[nH]3)CC2)cc1F
2: Cc1c(Cl)cccc1NC(=O)CN1CCC(OCc2ccc(F)c(F)c2)CC1 [Compound 11a]
Input: Of 1 and 2 , which carries the smaller reported C0 figure? Provide the label of your selected option as the answer.
Output: 1
(1: 36.9 ng/mL, 2: 91 ng/mL)

----------
assayProcedure: Mouse liver microsome stability / intrinsic clearance
Format: in vitro ADME
conditionDetails: mouse, liver microsomes
reportedProperty: CLint scaled (mL/min/kg)

Worked set:
[
  {
    "compound": "FC(F)(F)c1cccc(COC2CCN(Cc3cc4ccc(Cl)cc4[nH]3)CC2)c1 [Compound 9z]",
    "CLint scaled / mL/min/kg": 71.5
  },
  {
    "compound": "Cn1cnc2cc(CN3CCC(OCc4cccc(C(F)(F)F)c4)CC3)ccc21 [Compound 9p]",
    "CLint scaled / mL/min/kg": 85.2
  },
  {
    "compound": "FC(F)(F)c1cccc(COC2CCN(Cc3cn4ccccc4n3)CC2)c1 [Compound 9c]",
    "CLint scaled / mL/min/kg": 310
  },
  {
    "compound": "COc1ccc(CN2CCO[C@H](COc3ccccc3)C2)cc1F [Compound 1, reference compound]",
    "CLint scaled / mL/min/kg": 2130
  },
  {
    "compound": "Fc1cc(COC2CCN(Cc3ccc4[nH]cnc4c3)CC2)ccc1Cl [Compound 9l]",
    "CLint scaled / mL/min/kg": 90.4
  },
  {
    "compound": "Fc1cc(COC2CCN(Cc3cn4ccccc4n3)CC2)ccc1Cl [Compound 9d]",
    "CLint scaled / mL/min/kg": 96.8
  },
  {
    "compound": "Cn1ncc2cc(CN3CCC(OCc4ccc(F)c(F)c4)CC3)ccc21 [Compound 9u]",
    "CLint scaled / mL/min/kg": 104
  },
  {
    "compound": "Cn1ncc2cc(CN3CCC(OCc4ccc(Cl)c(F)c4)CC3)ccc21 [Compound 9v]",
    "CLint scaled / mL/min/kg": 85.3
  },
  {
    "compound": "Fc1cccc(COC2CCN(Cc3ncn4ccccc34)CC2)c1 [Compound 9h]",
    "CLint scaled / mL/min/kg": 1260
  },
  {
    "compound": "Cc1nc(CN2CCC(OCc3ccc(Cl)c(F)c3)CC2)c2ccccn12 [Compound 9j]",
    "CLint scaled / mL/min/kg": 140
  }
]

1: Fc1ccc(CO[C@H]2CCCN(Cc3ncn4ccccc34)C2)cc1F [Compound 8o]
2: Cc1c(Cl)cccc1NC(=O)CN1CCC(OCc2ccc(F)c(F)c2)CC1 [Compound 11a]
Input: For the pair 1 and 2 , which member has the lower CLint scaled number? Returns: label corresponding to the selected item.
Output: 2
(2: 287 mL/min/kg, 1: 5370 mL/min/kg)

A: Fc1cccc(COC2CCN(Cc3cn4ccccc4n3)CC2)c1 [Compound 9a]
B: Fc1ccc(COC2CCN(Cc3cn4ccccc4n3)CC2)cc1F [Compound 9b]
Input: Compare reported CLint scaled values for A and B . Which is lower? Could you answer with the label of the item you picked?
Output: B
(B: 158 mL/min/kg, A: 380 mL/min/kg)

P: Cc1cc(NC(=O)CN2CCC(OCc3ccc(F)c(F)c3)CC2)ccc1F [Compound 11d]
Q: FC(F)(F)c1cccc(COC2CCN(Cc3ccc4[nH]cnc4c3)CC2)c1 [Compound 9m]
Input: Lab note: check whether P or Q has the lower measured CLint scaled. // output: label of the selected item
Output: Q
(Q: 76.4 mL/min/kg, P: 306 mL/min/kg)
